src = paper PMC7037321

assay: Pharmacokinetic study after single intravenous administration to mice; assay type: in vivo; settings: male, ICR, plasma, single intravenous 0.1 mg/kg, representative (one time point per mouse), read-out: Vss
experimental readout: Vd

• COc1ccc(CC(=O)c2ccc3c(c2OC)C=CC(C)(C)O3)cc1OC = 2.06 L/kg

---

experiment: Pharmacokinetic study after single intravenous administration to rats; assay type: in vivo; conditions: male, Sprague-Dawley, rat, plasma, single intravenous 0.1 mg/kg, n = 4, mean ± S.D.
experimental readout: half-life

* COc1ccc(CC(=O)c2ccc3c(c2OC)C=CC(C)(C)O3)cc1OC | 2.43 h

---

assay: Pharmacokinetic study after single intravenous administration to rats; assay type: in vivo; details: male, Sprague-Dawley, rat, plasma, single intravenous 0.1 mg/kg, n = 4, mean ± S.D., read-out: Vss
experimental readout: Vd (L/kg)

* COc1ccc(CC(=O)c2ccc3c(c2OC)C=CC(C)(C)O3)cc1OC | 4.38
